# System: Mus musculus
# PROTOCOL DESCRIPTION: Inhibition of morphine-induced antinociceptive activity in po dosed ICR mouse administered via gavage pretreated with compound and 30 mins later injected with morphine and measured after 30 mins by hot plate test
# Type: functional
# APPLIED CONDITIONS: read-out: ID50 (the source's name)
EXPERIMENTAL READOUT: ED50

MOLECULE	ED50
NC(=O)c1cccc([C@H]2C[C@H]3CC[C@@H](C2)N3CCN(CC2CCC(F)(F)CC2)C(=O)CO)c1	4.4 mg/kg
O=C1CC[C@@]2(O)[C@H]3Cc4ccc(O)c5c4[C@@]2(CCN3CC2CC2)[C@H]1O5 [NALTREXONE]	0.82 mg/kg
NC(=O)c1cccc([C@H]2C[C@H]3CC[C@@H](C2)N3CCN(CC2CCCCC2)C(=O)CO)c1	4.2 mg/kg
C[C@H]1CN(C[C@H](Cc2ccccc2)C(=O)O)CC[C@@]1(C)c1cccc(O)c1	1.1 mg/kg
C[C@H]1CN(C[C@H](Cc2ccccc2)C(=O)NCC(=O)O)CC[C@H]1c1cccc(O)c1	> 20 mg/kg

GET /values?readout=ED50&item= NC(=O)c1cccc([C@H]2C[C@H]3CC[C@@H](C2)N3CCN(CC2CCCCC2)C(=O)[C@@H](O)CO)c1.O=S(=O)(O)O [AXELOPRAN SULFATE]
14 mg/kg

Same question, `CS(=O)(=O)CC(=O)N(CCN1[C@@H]2CC[C@H]1C[C@@H](c1cccc(C(N)=O)c1)C2)CC1CCCCC1` this time
24 mg/kg
